Values compiled from patent US20100010219A1.

- target: human HSD-1 (recombinant HSD-1) (Homo sapiens)
- Construct: made in house
- Sequence (P28845 whole entry): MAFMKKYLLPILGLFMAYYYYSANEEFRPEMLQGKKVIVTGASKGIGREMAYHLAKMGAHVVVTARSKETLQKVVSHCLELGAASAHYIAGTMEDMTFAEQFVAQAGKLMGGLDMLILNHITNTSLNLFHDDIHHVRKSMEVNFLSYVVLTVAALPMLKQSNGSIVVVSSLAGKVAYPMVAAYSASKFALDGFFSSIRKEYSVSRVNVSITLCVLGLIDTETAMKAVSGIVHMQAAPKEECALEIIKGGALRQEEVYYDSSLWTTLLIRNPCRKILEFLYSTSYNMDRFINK
- procedure details: HSD-1 activity inhibitory action in vitro (SPA, conversion of cortisone to cortisol)
- Format: biochemical
reported property: IC50

- smiles repr: "O=C1CCN(C(=O)N2CCC(n3ncc(C(=O)N4CC[C@@H](c5ccccc5C(F)(F)F)C4)c3C3CC3)CC2)CC1"
  target: "human HSD-1 (recombinant HSD-1) (Homo sapiens)"
  value observed: "< 30 nM"
